- targetUnderTest: allosteric AMP binding site of hlFBPase (Homo sapiens, UniProt P09467)
- Sequence (P09467 2-338 limits assumed): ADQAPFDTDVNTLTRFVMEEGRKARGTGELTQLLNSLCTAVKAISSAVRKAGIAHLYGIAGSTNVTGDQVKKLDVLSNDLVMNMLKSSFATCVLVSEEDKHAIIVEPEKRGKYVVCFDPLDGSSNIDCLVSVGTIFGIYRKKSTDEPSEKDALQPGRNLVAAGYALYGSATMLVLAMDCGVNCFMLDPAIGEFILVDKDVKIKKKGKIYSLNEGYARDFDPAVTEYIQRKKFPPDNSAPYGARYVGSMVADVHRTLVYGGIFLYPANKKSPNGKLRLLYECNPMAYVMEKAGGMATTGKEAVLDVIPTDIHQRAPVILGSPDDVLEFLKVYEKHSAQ
- assayMethodText: AMP site binding: displacement of 3H-AMP from hlFBPase
- conditionSet: 3H-AMP, hlFBPase; read-out: ED50 for AMP displacement
# maps each entry to its EC50

| compound | EC50 [µM] |
| --- | --- |
| Nc1ncnc2c1nc(-c1ccc(P(=O)(O)O)o1)n2CCC1CCCCC1 [Compound 2.2] | 35 |
| NC(=O)c1ncn([C@@H]2O[C@H](COP(=O)(O)O)[C@@H](O)[C@H]2O)c1N [ZMP, reference compound] | 250 |

###

- Test system: rat hepatocytes
- assayMethodText: Gluconeogenesis from dihydroxyacetone in rat hepatocytes: glucose production and fructose 1,6-bisphosphate accumulation
- Format: cell-based
- conditionSet: Hepatocyte; 10 mM dihydroxyacetone, rat hepatocytes
- Method: Isolated rat hepatocytes were prepared as described in Example D and incubated under the identical conditions described except that lactate/pyruvate was replaced by 10 mM dihydroxyacetone, a substrate which feeds into the gluconeogenic pathway at a step just prior to FBPase. […] After thorough mixing and centrifugation, the supernatant was analyzed for glucose content as described in Example D, and also for fructose-1,6-bisphosphate. […]
observable: IC50

| compound | observable | reportedValue |
| --- | --- | --- |
| CC(C)(C)Cn1c(-c2ccc(P(=O)(O)O)o2)nc2c(N)ncnc21 [Compound 2.7] | IC50 | ~5 µM |
